# melting point per record follows

Value of melting point reported for the compound `CC(C)Cc1ccc(CN(C)c2ccc(-c3csc(CN(CC(=O)O)C(=O)Cc4ccc(C(C)C)cc4)n3)cc2)cc1` is 124 to 126 °C

Value of melting point reported for the compound `Cc1ccc(OCc2ccc(C(F)(F)F)cc2)c(-c2csc(CN(CC(=O)O)Cc3ccccc3)n2)c1` is 168 to 170 °C

Value of melting point reported for the compound `CCC(CC)N(Cc1ccc(-c2csc(COc3cncc(C(=O)O)c3)n2)cc1)c1ccc(C(C)C)cc1` is 110 to 114 °C

Value of melting point reported for the compound `CCCC(CCC)c1ccc(Cn2cc(-c3csc(CNc4cccc(C(=O)O)c4)n3)c3ccccc32)cc1` is 83 to 85 °C

Value of melting point reported for the compound `CCCC(CCC)c1ccc(OCc2ccc(-c3csc(Cn4nc(C(C)(C)C)cc4C(=O)O)n3)cc2)cc1` is 123 to 125 °C

Value of melting point reported for the compound CN(Cc1ccc(CC(C)(C)C)cc1)c1ccc(-c2csc(CN3Cc4ccccc4CC3C(=O)O)n2)cc1 (stereo not shown) is 175 to 177 °C

Value of melting point reported for the compound `CCCC(CCC)c1ccc(OCc2ccc(-c3csc(CN(CC(=O)O)CC(=O)Nc4ccc(C(C)C)cc4)c3)cc2)cc1` is 164 to 166 °C
